- System: A549/ATCC NSCLC
- MEASUREMENT DESCRIPTION: NCI-60 one-dose screen, 48 h (100 = growth as untreated, 0 = no growth, -100 = all killed)
- CONDITION LABEL: 10 µM unless noted
This is part of a sample that, as a whole, favours compounds with a hit. Of some 83,000 tested, about 20% had one in any assay.
PROPERTY MEASURED: growth (%)
Report as a plain number; the unit % is understood.

// worked examples, growth included
COMPOUND	growth, %
CCOC(=O)c1c(NC(=O)c2cccc(C(F)(F)F)c2)sc2cc(O)ccc12	101
COc1cc(/C=C/C(=O)c2cc(OC)c(OC)c(OC)c2)ccc1Oc1nc(NCCO)nc(N2CCOCC2)n1	6.84
c1ccc2c(NCCCN3CCOCC3)c3oc4ccccc4c3nc2c1	-62.1
CC(=O)Oc1ccccc1C(=O)Nc1ccc(C(=O)/C=C/c2ccncc2)cc1	56.5
COC1CCN(Cc2ccc3c(NNC(=O)c4cnccn4)nc4cc(F)ccc4n23)C1 (stereo not given)	18.9

Can you look up the measured growth of C/C(=N/NC(N)=S)c1ccc(Nc2nc(SCC(C)C)nc(-c3ccc(F)cc3)c2C#N)cc1 for me?
-2.25

Can you look up the measured growth of O=C1/C(=C/C2=Cc3ccccc3OC2)SC(=S)N1c1ccc(F)cc1 for me?
101

Can you look up the measured growth of CC(=O)c1ccc(Nc2nc(SC(C)C)nc(-c3ccccc3)c2C#N)cc1 for me?
93.5

Can you look up the measured growth of NS(=O)(=O)c1cccc(Nc2nc(SCC(=O)c3ccc([N+](=O)[O-])cc3)nc3ccccc23)c1 for me?
70.6

Can you look up the measured growth of O=C1Nc2cc(Cl)ccc2/C1=C\c1ccc(OCc2ccc(Br)cc2F)cc1 for me?
-28.9

Attribution: PubChem BioAssay (NCI)
